System: C4-2AR-WT cells, AR(+)
Experiment: CRPC cell proliferation assay (CellTiter-Glo), C4-2AR-WT
Type: cell-based
Conditions: CTG at 96h
measuredMetric: Max % Inh (%)

>>> recordedmeasurement("CC[C@H](COC)n1c(=O)c(NCCC(=O)O)nc2ccc(-c3c(C)noc3C)nc21 [Example 47]")
82
>>> recordedmeasurement("CNC(=O)c1ccc(N2C(=S)N(c3ccc(C#N)c(C(F)(F)F)c3)C(=O)C2(C)C)cc1F [MDV3100, reference compound]")
39
>>> recordedmeasurement("CCC(=O)N(C)c1ccc2nc(NCCC(=O)O)c(=O)n([C@@H](CC)c3ccccc3)c2n1 [Example 10]")
85
>>> recordedmeasurement("COc1cc2c(cc1-c1c(C)noc1C)ncc1[nH]c(=O)n([C@H](C)c3ccccn3)c12 [i-BET151, reference compound]")
92
